- target: Cy5-labelled Mcl1 (amino acids 171-321) C286S protein (UniProtKB Q07820) (Homo sapiens (Human), UniProt Q07820, C286S)
- Sequence (Q07820 171-321 C286S): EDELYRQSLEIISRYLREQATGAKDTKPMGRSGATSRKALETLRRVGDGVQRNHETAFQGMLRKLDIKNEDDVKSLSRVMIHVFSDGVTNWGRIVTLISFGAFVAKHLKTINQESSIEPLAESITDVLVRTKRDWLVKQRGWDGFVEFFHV
- test: Inhibition of Mcl-1 by the fluorescence quenching assay (Example A, Method B)
- Format: binding
measure_name: Ki (nM)
Express the result in nM but write the number alone.

// below: answered compounds
compound	measure_name	unit_spec	reading
COCC(=O)OC(C)OC(=O)[C@]1(Nc2cccc(Cl)c2)CC[C@@]2(CC1)c1cc3c(cc1C[C@@H]2C[C@@H](C)COc1ccnc2c1[C@H](C)CCC2)OCO3 (stereo partly shown)	Ki	nM	3.94
CCOc1ccc2c(c1)[C@]1(CC[C@@](Nc3cccc(Cl)c3)(C(=O)O)CC1)[C@@H](C[C@@H](C)COc1ccnc3c1[C@H](C)CCC3)C2	Ki	nM	0.0801
C[C@@H]1CCCc2nccc(OCC(CC3Cc4ccccc4[C@]34CC[C@@](Nc3cccc(Cl)c3)(C(=O)O)CC4)C(F)F)c21 (single isomer, unassigned) [Example 521]	Ki	nM	32.3
CC(O)c1ccc2c(c1)[C@]1(CC[C@@](Nc3cccc(Cl)c3)(C(=O)O)CC1)[C@@H](C[C@@H](C)COc1ccnc3c1[C@H](C)CCC3)C2 (single isomer, unassigned) [Example 859]	Ki	nM	0.0375
CC(CC1Cc2ccccc2[C@]12CC[C@@](Nc1cccc(Cl)c1)(C(=O)O)CC2)C(C)Oc1ccnc2c1CCC2 (single isomer, unassigned) [Example 617]	Ki	nM	93.5

Moving on to another compound below.
Given the compound "Cc1c(OC[C@H](C)C[C@H]2Cc3ccccc3[C@]23CC[C@@](Nc2cccc(Cl)c2)(C(=O)O)CC3)ccnc1CO" , what is its reported Ki?
2.62

These data points were gathered from patent US20240150293A1.
